# IC50 per record follows
system: HGC-27; experiment: Antiproliferative activity against human HGC-27 cells measured after 24 hrs by […]; assay type: functional, cell-based; conditions: HGC-27, 24 h
Enter your answer as a number in µM; do not include the unit.

Completed entries (count: 2):
# Compound string, IC50 / µM
records = [
    ("C#Cc1ccc(N2CCCC2)c(C(=O)Nc2ccc(CNC(=O)OCc3cccnc3)cc2)c1", 2.48),
    ("O=C(NCc1ccc(NC(=O)c2ccccc2N2CCCC2)cc1)OCc1cccnc1", 1.84),
]

Please look at the following compound next.
Returns the measured IC50 for the input compound. Input: O=C(NCc1ccc(NC(=O)c2cc(F)ccc2N2CCCC2)cc1)OCc1cccnc1
0.28

====

test: Tmax in Sprague-Dawley rat at 100 mg/kg, po measured up to 24 hrs by LC-MS/MS analysis; format: ADME, organism-based; conditions: in vivo
# Tmax per record follows
In your response, the unit should come after the numeric value.

# Compound string, Tmax
measured = [
    ("O=C(NCc1ccc(NC(=O)c2cc(F)ccc2N2CCCC2)cc1)OCc1cccnc1", "72 min"),
]

Please look at the following compound next.
Returns the measured Tmax for the input compound. Input: O=C(NCc1ccc(NC(=O)c2ccccc2N2CCCC2)cc1)OCc1cccnc1
30 min
